Kindly state % activity remaining for each of the entries shown.
Tested on: Bemisia tabaci CYPCM1
experimental_parameters: recombinant enzyme 50 μL + 3 μL of 10 mM compound stock in acetone, 10 min incubation at room temperature, substrate 7-ethoxycoumarin, NADPH
Include the unit right after the number.

Asked: State its % activity remaining: CC#CCOc1cc(CCCCCC)cc2c1OCC2
Given back: 39.22%

Asked: State its % activity remaining: C#CCOCc1cc(CCC)cc2c1OCC2
Given back: 86.22%

Asked: State its % activity remaining: CC#CCOCc1cc(CCCC)cc2c1OCC2
Given back: 3.16%

Asked: State its % activity remaining: CC#CCOCc1cc(CCCCCC)cc2c1OCC2
Given back: 27.49%

Asked: State its % activity remaining: C#CCOc1cc(CCCCCC)cc2c1OCC2
Given back: 61.16%

Asked: State its % activity remaining: CC#CCOCc1cc(CCC)cc2c1OCC2
Given back: 17.92%

Asked: State its % activity remaining: C#CCOCc1cc(CCCC)cc2c1OCC2
Given back: 87.62%
